- system under test: human mPGES-1 (Homo sapiens)
- Construct: made in house; host or cells: CHO-K1 cells, transient transfection; microsomal fraction
- Sequence (O14684 whole entry): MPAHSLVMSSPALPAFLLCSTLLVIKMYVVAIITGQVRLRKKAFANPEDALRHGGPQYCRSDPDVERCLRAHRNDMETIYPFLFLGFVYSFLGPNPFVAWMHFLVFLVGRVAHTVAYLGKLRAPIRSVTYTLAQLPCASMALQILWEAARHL
- assay name: Microsomal prostaglandin E synthase assay
- Type: biochemical
- experimental setup: microsomes of CHO-K1 cells transfected with human mPGES-1; PGE2 by EIA; average of at least n=3; read-out: h-CHO (nM); potency expressed as IC50
The following compounds are listed with their measured IC50 values.
Expressed in nM, but write only the number.

A selection of reference data follows.
compound	assay metric	unit abbrev	result
CC(C)(O)C#Cc1ccc2c(c1)c1cc(Cl)ccc1c1[nH]c(-c3c(F)cccc3C#N)nc21 [Example 14]	IC50	nM	1.8
CC(C)(O)c1ccc2c(c1)c1cc(Br)ccc1c1nc(-c3c(C#N)cccc3C#N)[nH]c21 [Example 87]	IC50	nM	1.9
N#Cc1cccc(C#N)c1-c1nc2c3ccc(Br)cc3c3cc(Cl)ccc3c2[nH]1 [Example 36]	IC50	nM	1.2

For the next question, use this compound.
# return IC50 of CC(C)(O)c1ccc2c(c1)c1cc(C#CC3CC3)ccc1c1nc(-c3c(C#N)cccc3C#N)[nH]c21 [Example 88] (system: human mPGES-1 (Homo sapiens))
1.3
